# tgt: T1, conarachin (undenatured) (Arachis hypogaea, UniProt P43238 P43238:26-626)
# T1 sequence: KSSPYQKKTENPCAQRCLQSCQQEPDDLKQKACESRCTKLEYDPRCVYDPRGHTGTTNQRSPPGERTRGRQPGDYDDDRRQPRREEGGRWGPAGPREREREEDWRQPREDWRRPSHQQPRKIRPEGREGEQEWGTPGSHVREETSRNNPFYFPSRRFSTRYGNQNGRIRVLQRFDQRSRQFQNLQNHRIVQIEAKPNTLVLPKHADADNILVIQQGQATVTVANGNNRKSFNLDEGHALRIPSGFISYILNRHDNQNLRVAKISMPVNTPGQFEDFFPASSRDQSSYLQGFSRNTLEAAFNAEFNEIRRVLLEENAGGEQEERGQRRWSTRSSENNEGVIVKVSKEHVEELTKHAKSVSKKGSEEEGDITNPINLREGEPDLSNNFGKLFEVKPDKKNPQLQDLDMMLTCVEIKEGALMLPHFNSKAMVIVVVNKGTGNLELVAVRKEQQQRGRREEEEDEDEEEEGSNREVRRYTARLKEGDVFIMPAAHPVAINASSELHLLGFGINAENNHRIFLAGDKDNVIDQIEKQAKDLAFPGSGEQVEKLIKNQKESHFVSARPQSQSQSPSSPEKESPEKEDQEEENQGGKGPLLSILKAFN
# test: SPR; same SPR buffer
# protocol_conditions: tags: COSMO BIO CSB-CSB-NP003601PL
readout_kind: pKd
Scale for pKd: -log10 of concentration given in mol/L; no unit attached.

# binder, recorded_number
data = [
    ("TTTTTTTTTTTTTTTTTTTTAAAAAAAAAAAAAAAAAAAAAAAA (ssDNA) [PolydT20]", 9.58),
]

Turning now to a further binder:
If you can, please state the reported pKd value of CTCTCTCTCTCTCCCTCTCTCTCTCAAAAAAAAAAAAAAAAAAAAAAAA (ssDNA) [CT25_C3 (Pyrimidine rich)] .
9.55
